Catalogue of compounds with associated AUC of viability dose-response curve
tested on: SEM cells; assay: AUC of viability dose-response curve (% viability x log10 dose units); higher = less sensitive; conditions: RPMI 5 mM glucose + 10% dialyzed FBS; 48 h
Experimental Readout: AUC of viability dose-response curve

compound=CC(C)C(=O)Nc1ncc(-c2cc(C(F)F)nn2-c2c(Cl)cccc2Cl)s1 experimental_readout="AUC of viability dose-response curve" numeric_result=463
compound=CCOC(CN1C(=O)[C@](CC(=O)Nc2ccc(C)cc2)(NC(=O)Nc2ccc(C)cc2)c2ccccc21)OCC experimental_readout="AUC of viability dose-response curve" numeric_result=466
compound=NC/1=N/C(=O)N(C[C@@H](CO)OC[P](O)(O)=O)/C=C1 experimental_readout="AUC of viability dose-response curve" numeric_result=439
compound=O=C(Nc1ccc([N+](=O)[O-])cc1Cl)c1cc(Cl)ccc1O experimental_readout="AUC of viability dose-response curve" numeric_result=370
compound="C=C[C@H]1CN2CCC1C[C@@H]2[C@@H](O)c1ccnc2ccccc12 (stereo partly drawn)" experimental_readout="AUC of viability dose-response curve" numeric_result=451
compound=CN1/C=C(\N=C(NC2=CC=C(C=C2)C(=O)N3CCOCC3)/C1=O)/C4=C(C)C(=CC=C4)NC(=O)C5=CC=C(C=C5)C(C)(C)C experimental_readout="AUC of viability dose-response curve" numeric_result=458
compound=CN(CCOc1ccc(NS(C)(=O)=O)cc1)CCc1ccc(NS(C)(=O)=O)cc1 experimental_readout="AUC of viability dose-response curve" numeric_result=447
compound=O=C1c2c(O)cc(O)cc2O[C@H](c2cc(O)c(O)c(O)c2)[C@H]1O experimental_readout="AUC of viability dose-response curve" numeric_result=420
compound=CCOc1cc(/C=C2/C(=O)N(c3ccccc3)N=C2C)cc(Cl)c1OCC(=O)OC experimental_readout="AUC of viability dose-response curve" numeric_result=383
compound="O=C(O)CSCC(=O)NC1CCSC1=O (stereo not drawn)" experimental_readout="AUC of viability dose-response curve" numeric_result=464
compound=FC1=CC=C(CN2\C=C/C=C(/C(=O)N[C@@H](COC3=CC4=C(NC(=O)N4)C=C3)C5=CC=CC=C5)C2=O)C=C1F experimental_readout="AUC of viability dose-response curve" numeric_result=365
compound=COC/1=C/[C@@H]2[C@@H]3CC4=C(C(=C(OC)C=C4)O)[C@]2(CCN3C)CC1=O experimental_readout="AUC of viability dose-response curve" numeric_result=464
compound=Cc1cc(-c2ncc(CC(=O)Nc3ccc(-c4cnccn4)cn3)cc2C)ccn1 experimental_readout="AUC of viability dose-response curve" numeric_result=457

---

test system: P12-Ichikawa; experiment: cell viability relative to DMSO control; higher = less cytotoxic; conditions: HPLM + 10% dialyzed FBS; 48 h; 0.0211 µM
Experimental Readout: cell viability (%)

molecule=O=C(Nc1ccc([N+](=O)[O-])cc1Cl)c1cc(Cl)ccc1O experimental_readout="cell viability" numeric_result=102
molecule=CC(=O)OCC(=O)[C@@]12OC(C)(C)O[C@@H]1C[C@H]3[C@@H]4C[C@H](F)C/5=C/C(=O)/C=C\[C@]5(C)[C@@]4(F)[C@@H](O)C[C@]23C experimental_readout="cell viability" numeric_result=117
molecule=O=[S+]([O-])(CCSSCC[S+](=O)([O-])[O][Na])[O][Na] experimental_readout="cell viability" numeric_result=124
molecule=O=C(C[C@@H]1C/C=C\CCC(=O)O[C@H](c2ccccc2)CNC1=O)NCc1ccc(Cl)cc1 experimental_readout="cell viability" numeric_result=117

# credit: the supplement of paper PMC11451515
